- TARGET ENTITY: CDK7/cyclin H (Homo sapiens)
- EXPERIMENT SUMMARY: CDK7 assay (CTD peptide substrate)
- Assay type: biochemical
- APPLIED CONDITIONS: Table 3; read-out: Average IC50 CDK7 cyclin H
- Experimental: CTD peptide substrate (biotinyl-Ahx-(Tyr-Ser-Pro-Thr-Ser-Pro-Ser)4-NH2; 1-2 mg/mL) and recombinant human CDK7/cyclin H, CDK9/cyclin T1, or CDK9/cyclin K (0.5-2 μg) were incubated for 45 min at 30° C. in the presence of varying amounts of test compound in 20 mM MOPS pH 7.2, 25 mM β-glycerophosphate, 5 mM EGTA, 1 mM DTT, 1 mM sodium vanadate, 15 mM MgCl2, and 100 μM ATP (containing a trace amount of ^32PγATP) in a total volume of 25 μL in a 96-well microtiter plate. […]
pIC50: −log10 of the molar value.
Measured pIC50, listed per entry for reference.
READOUT: pIC50

1) Cc1nc(C)c(-c2ccnc(Nc3ccc(F)cc3)n2)s1    4.80
2) Cc1nc(C)c(-c2ccnc(Nc3ccc(N(C)C)cc3)n2)s1    4.96
3) Cc1nc(C)c(-c2ccnc(Nc3ccc(N(C)C)c([N+](=O)[O-])c3)n2)s1    5.82
4) Cc1nc(N)sc1-c1ccnc(Nc2ccc(CCO)cc2)n1    5.55
5) CNc1nc(C)c(-c2ccnc(Nc3cccc(O)c3)n2)s1    5.47
6) CCN(CC)CCOc1ccc(Nc2nccc(-c3sc(C)nc3C)n2)cc1    6.36
7) Cc1nc(N)sc1-c1ccnc(Nc2ccc(O)cc2)n1    6.00
8) Cc1nc(C)c(-c2ccnc(Nc3ccc(N(C)C)c(Cl)c3)n2)s1    5.20
9) Cc1nc(C)c(-c2ccnc(Nc3ccc(S(=O)(=O)O)cc3)n2)s1    4.96
10) Cc1nc(N)sc1-c1ccnc(Nc2cccc(N)c2)n1    6.00
11) COc1ccc(Nc2nccc(-c3sc(C)nc3C)n2)cc1OC    5.23
12) Cc1nc(C)c(-c2ccnc(Nc3cccc(N)c3)n2)s1    5.28
13) CNc1nc(C)c(-c2ccnc(Nc3ccc(O)cc3)n2)s1    6.07
14) CCNc1nc(C)c(-c2ccnc(Nc3cccc([N+](=O)[O-])c3)n2)s1    6.41
15) Cc1nc(N)sc1-c1ccnc(Nc2cccc(I)c2)n1    6.23
16) COc1ccc(Nc2nccc(-c3sc(C)nc3C)n2)cc1N(C)C    5.31
17) Cc1nc(C)c(-c2ccnc(Nc3ccc(O)cc3)n2)s1    5.62
18) Cc1nc(C)c(-c2ccnc(Nc3cccc(NC(=N)N)c3)n2)s1    6.51
19) Cc1nc(C)c(-c2ccnc(Nc3ccc([N+](C)(C)C)cc3)n2)s1    6.41

###

- TARGET ENTITY: CDK9/cyclin T1 (Homo sapiens, UniProt P50750)
- Sequence (P50750 whole entry): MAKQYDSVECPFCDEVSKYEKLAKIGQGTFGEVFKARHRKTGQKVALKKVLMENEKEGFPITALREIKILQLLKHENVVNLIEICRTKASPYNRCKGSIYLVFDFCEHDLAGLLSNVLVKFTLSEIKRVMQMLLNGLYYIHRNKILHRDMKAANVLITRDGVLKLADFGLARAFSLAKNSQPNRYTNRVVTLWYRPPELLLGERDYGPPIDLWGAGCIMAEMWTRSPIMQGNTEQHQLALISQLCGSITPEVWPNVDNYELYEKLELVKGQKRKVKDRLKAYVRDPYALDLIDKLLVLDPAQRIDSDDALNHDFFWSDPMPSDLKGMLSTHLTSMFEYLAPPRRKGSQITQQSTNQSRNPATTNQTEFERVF
- Sequence (O60563 whole entry partner): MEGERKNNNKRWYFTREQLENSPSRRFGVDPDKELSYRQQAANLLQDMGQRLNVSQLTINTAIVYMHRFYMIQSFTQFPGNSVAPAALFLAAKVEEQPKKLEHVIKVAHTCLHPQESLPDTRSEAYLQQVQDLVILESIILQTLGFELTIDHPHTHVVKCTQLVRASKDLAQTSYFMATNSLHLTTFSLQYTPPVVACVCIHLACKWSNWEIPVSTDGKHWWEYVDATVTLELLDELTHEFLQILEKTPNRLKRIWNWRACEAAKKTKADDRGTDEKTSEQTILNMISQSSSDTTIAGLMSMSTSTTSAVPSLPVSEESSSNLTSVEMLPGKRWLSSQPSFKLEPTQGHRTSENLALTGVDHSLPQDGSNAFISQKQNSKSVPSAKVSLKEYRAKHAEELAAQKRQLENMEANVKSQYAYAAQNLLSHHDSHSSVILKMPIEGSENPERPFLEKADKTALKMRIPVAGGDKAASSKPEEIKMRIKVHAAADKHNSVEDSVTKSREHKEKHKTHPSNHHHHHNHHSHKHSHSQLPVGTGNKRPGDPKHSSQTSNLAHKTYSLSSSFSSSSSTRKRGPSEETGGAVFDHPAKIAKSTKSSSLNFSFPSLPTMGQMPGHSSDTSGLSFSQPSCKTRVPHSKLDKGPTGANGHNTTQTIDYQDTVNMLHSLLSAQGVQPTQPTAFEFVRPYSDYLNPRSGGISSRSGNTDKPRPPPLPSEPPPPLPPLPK
- EXPERIMENT SUMMARY: CDK9 assay (CTD peptide substrate)
- Type: biochemical
- APPLIED CONDITIONS: Table 4; read-out: Kinase Inhibition IC50 CDK9-cyclin T1
# strict inequality: IC50 < 80 nM yields true (1), everything else yields false (0)

1) Cc1cc(Nc2nccc(-c3sc(=O)n(C)c3C)n2)ccc1Cl    false (0)
2) Cc1ccc(Nc2nccc(-c3sc(=O)n(C)c3C)n2)cc1[N+](=O)[O-]    true (1)
3) Cc1c(-c2ccnc(Nc3cccc([N+](=O)[O-])c3)n2)sc(=O)n1C    true (1)
4) Cc1c(-c2ccnc(Nc3ccc(N(C)C)cc3)n2)sc(=O)n1C    false (0)
5) Cc1c(-c2ccnc(Nc3ccc(O)cc3)n2)sc(=O)n1C    true (1)
6) Cc1c(-c2ccnc(Nc3ccc(F)cc3)n2)sc(=O)n1C    true (1)
7) Cc1ccc(Nc2nccc(-c3sc(=O)n(C)c3C)n2)cc1I    false (0)

###

- TARGET ENTITY: CDK2/cyclin A (Homo sapiens)
- EXPERIMENT SUMMARY: CDK2/cyclin A kinase assay;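 note: Read-out is incorporated radioactivity retained on P81 filter plates and quantified by scintillation counting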
- Assay type: biochemical
- APPLIED CONDITIONS: Table 3; read-out: Average IC50 CDK2 cyclin A2
READOUT: IC50

1) COc1ccc(Nc2nccc(-c3sc(C)nc3C)n2)cc1O    310 nM
2) Cc1nc(N(C)C)sc1-c1ccnc(Nc2cccc([N+](=O)[O-])c2)n1    1800 nM
3) Cc1nc(C)c(-c2ccnc(Nc3cccc(C(F)(F)F)c3)n2)s1    > 100000 nM
4) CCNc1nc(C)c(-c2ccnc(Nc3cccc([N+](=O)[O-])c3)n2)s1    4200 nM
5) Cc1nc(C)c(-c2ccnc(Nc3cccc(N)c3)n2)s1    530 nM
6) Cc1nc(N)sc1-c1ccnc(Nc2ccc(I)c([N+](=O)[O-])c2)n1    1700 nM
7) Cc1nc(N)sc1-c1ccnc(Nc2cccc(O)c2)n1    180 nM
8) Cc1nc(N)sc1-c1ccnc(Nc2cccc(N)c2)n1    520 nM
9) Cc1nc(C)c(-c2ccnc(Nc3ccc(S(=O)(=O)O)cc3)n2)s1    1 nM

###

- TARGET ENTITY: CDK9/cyclin T1 (Homo sapiens, UniProt P50750)
- EXPERIMENT SUMMARY: CDK9 assay (CTD peptide substrate)
- Assay type: biochemical
- APPLIED CONDITIONS: Table 3; read-out: Average IC50 CDK9 cyclin T1
pIC50: −log10 of the molar value.
Measured pIC50, listed per entry for reference.
READOUT: pIC50

1) CCNc1nc(C)c(-c2ccnc(Nc3ccc(Cl)cc3)n2)s1    5.23
2) Cc1nc(C)c(-c2ccnc(Nc3ccc(F)c(F)c3)n2)s1    5.51
3) CNc1nc(C)c(-c2ccnc(Nc3cccc(F)c3)n2)s1    7.20
4) C=CCNc1nc(C)c(-c2ccnc(Nc3cccc([N+](=O)[O-])c3)n2)s1    7.17
5) CNc1nc(C)c(-c2ccnc(Nc3ccc(O)cc3)n2)s1    7.12
6) Cc1nc(C)c(-c2ccnc(Nc3ccc(O)cc3)n2)s1    6.34
7) CCNc1nc(C)c(-c2ccnc(Nc3cccc([N+](=O)[O-])c3)n2)s1    6.68
8) CNc1nc(C)c(-c2ccnc(Nc3ccc(F)cc3)n2)s1    7.09
9) Cc1nc(C)c(-c2ccnc(Nc3cccc(N)c3)n2)s1    6.39

###

- TARGET ENTITY: CDK9/cyclin T1 (Homo sapiens)
- EXPERIMENT SUMMARY: CDK9 assay (CTD peptide substrate)
- Type: biochemical
- APPLIED CONDITIONS: Table 3; read-out: Average IC50 CDK9 cyclin T1
# strict inequality: IC50 < 300 nM yields Y, everything else yields N

1. CNc1nc(C)c(-c2ccnc(Nc3cccc(O)c3)n2)s1    Y
2. COc1ccc(Nc2nccc(-c3sc(C)nc3C)n2)cc1O    N
3. CNc1nc(C)c(-c2ccnc(Nc3cccc(Br)c3)n2)s1    Y
4. Cc1nc(N)sc1-c1ccnc(Nc2cccc(Br)c2)n1    Y
5. CNc1nc(C)c(-c2ccnc(Nc3cccc(OC)c3)n2)s1    N

###

Measured pIC50, listed per entry for reference.
- TARGET ENTITY: CDK7/cyclin H (Homo sapiens, UniProt P50613)
- Sequence (P50613 whole entry): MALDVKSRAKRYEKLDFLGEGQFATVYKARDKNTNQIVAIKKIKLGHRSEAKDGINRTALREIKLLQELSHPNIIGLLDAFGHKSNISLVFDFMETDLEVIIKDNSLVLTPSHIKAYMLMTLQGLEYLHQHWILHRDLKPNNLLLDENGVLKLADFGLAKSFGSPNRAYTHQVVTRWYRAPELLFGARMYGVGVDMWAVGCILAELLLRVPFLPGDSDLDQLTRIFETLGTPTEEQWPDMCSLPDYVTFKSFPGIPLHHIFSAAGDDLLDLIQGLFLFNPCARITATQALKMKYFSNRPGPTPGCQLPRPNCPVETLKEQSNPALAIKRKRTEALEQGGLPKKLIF
- Sequence (P51946 whole entry partner): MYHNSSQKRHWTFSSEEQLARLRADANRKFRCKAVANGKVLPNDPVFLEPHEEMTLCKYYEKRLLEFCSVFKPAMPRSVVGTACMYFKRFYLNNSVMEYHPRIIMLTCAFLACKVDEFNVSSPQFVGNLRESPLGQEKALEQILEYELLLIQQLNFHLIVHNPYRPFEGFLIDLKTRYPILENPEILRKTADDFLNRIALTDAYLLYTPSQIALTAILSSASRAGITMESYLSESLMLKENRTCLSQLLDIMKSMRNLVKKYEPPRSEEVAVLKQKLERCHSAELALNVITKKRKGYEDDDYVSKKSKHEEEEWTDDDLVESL
- EXPERIMENT SUMMARY: CDK7 assay (CTD peptide substrate)
- Assay type: biochemical
- APPLIED CONDITIONS: Table 3; read-out: Average IC50 CDK7 cyclin H
pIC50: −log10 of the molar value.
READOUT: pIC50

1) Cc1nc(C)c(-c2ccnc(Nc3cccc(O)c3)n2)s1    5.49
2) CNc1nc(C)c(-c2ccnc(Nc3cccc(C(F)(F)F)c3)n2)s1    4.72
3) Cc1nc(C)c(-c2ccnc(Nc3ccccc3)n2)s1    4.96

###

- TARGET ENTITY: CDK4/Cyclin D1 (Homo sapiens, UniProt P11802)
- Sequence (P11802 whole entry, species assumed): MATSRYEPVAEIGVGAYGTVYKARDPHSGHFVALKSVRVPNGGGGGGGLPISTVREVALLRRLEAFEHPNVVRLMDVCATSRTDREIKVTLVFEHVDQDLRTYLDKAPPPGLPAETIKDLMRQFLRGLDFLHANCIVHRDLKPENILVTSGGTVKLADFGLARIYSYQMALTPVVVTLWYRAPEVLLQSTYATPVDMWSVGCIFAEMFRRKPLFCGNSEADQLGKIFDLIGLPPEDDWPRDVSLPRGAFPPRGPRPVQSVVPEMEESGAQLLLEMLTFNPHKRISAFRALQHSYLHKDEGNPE
- Sequence (P24385 whole entry partner, species assumed): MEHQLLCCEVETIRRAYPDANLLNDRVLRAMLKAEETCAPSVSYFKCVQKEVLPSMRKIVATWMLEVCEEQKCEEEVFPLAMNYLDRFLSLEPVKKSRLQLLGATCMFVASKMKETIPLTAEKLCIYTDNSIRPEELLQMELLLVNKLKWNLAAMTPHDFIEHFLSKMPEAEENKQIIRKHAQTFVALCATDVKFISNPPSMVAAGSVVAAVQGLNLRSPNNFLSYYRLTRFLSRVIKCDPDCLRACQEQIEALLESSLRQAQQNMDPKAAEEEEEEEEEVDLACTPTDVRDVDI
- EXPERIMENT SUMMARY: CDK4/cyclin D1 kinase assay (GST-Rb phosphorylation)
- Assay type: biochemical
- APPLIED CONDITIONS: Table 3; read-out: Average IC50 CDK4 cyclin D1
pIC50: −log10 of the molar value.
Classification field: enter Met for pIC50 values not below 5, Not met for values below it.

1. Cc1nc(N(C)C)sc1-c1ccnc(Nc2ccc(Cl)cc2)n1    Met
2. Cc1nc(N(C)C)sc1-c1ccnc(Nc2cccc([N+](=O)[O-])c2)n1    Not met
3. COc1cccc(Nc2nccc(-c3sc(N)nc3C)n2)c1    Met
4. Cc1nc(C)c(-c2ccnc(Nc3ccc(CCO)cc3)n2)s1    Met
5. Cc1nc(N)sc1-c1ccnc(Nc2cccc(Cl)c2)n1    Met
6. Cc1nc(C)c(-c2ccnc(Nc3cccc(C(F)(F)F)c3)n2)s1    Not met
7. Cc1nc(N)sc1-c1ccnc(Nc2ccc(C(F)(F)F)cc2)n1    Met
8. Cc1nc(C)c(-c2ccnc(Nc3ccc(O)c([N+](=O)[O-])c3)n2)s1    Met
9. COc1ccc(Nc2nccc(-c3sc(C)nc3C)n2)cc1O    Met
